target: AR (Homo sapiens, UniProt P10275+P40337, T878A); construct: degradation Dmax of AR in LNCaP cells; endogenous in cells; host or cells: LNCaP; experiment: AR degradation in LNCaP cells (androgen receptor ELISA); type: cell-based; settings: LNCaP cells
Sequence (Q15370 whole entry): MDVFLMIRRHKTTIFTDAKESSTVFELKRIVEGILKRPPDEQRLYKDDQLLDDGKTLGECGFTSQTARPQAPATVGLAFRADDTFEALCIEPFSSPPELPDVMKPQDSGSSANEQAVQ
Sequence (P40337 whole entry): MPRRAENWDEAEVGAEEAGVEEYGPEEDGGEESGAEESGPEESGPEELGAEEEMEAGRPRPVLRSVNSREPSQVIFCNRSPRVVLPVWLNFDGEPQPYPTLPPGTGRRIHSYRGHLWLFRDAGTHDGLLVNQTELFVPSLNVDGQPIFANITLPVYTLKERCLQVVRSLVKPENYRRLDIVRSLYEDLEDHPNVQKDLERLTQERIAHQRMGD
Sequence (P10275 whole entry T878A): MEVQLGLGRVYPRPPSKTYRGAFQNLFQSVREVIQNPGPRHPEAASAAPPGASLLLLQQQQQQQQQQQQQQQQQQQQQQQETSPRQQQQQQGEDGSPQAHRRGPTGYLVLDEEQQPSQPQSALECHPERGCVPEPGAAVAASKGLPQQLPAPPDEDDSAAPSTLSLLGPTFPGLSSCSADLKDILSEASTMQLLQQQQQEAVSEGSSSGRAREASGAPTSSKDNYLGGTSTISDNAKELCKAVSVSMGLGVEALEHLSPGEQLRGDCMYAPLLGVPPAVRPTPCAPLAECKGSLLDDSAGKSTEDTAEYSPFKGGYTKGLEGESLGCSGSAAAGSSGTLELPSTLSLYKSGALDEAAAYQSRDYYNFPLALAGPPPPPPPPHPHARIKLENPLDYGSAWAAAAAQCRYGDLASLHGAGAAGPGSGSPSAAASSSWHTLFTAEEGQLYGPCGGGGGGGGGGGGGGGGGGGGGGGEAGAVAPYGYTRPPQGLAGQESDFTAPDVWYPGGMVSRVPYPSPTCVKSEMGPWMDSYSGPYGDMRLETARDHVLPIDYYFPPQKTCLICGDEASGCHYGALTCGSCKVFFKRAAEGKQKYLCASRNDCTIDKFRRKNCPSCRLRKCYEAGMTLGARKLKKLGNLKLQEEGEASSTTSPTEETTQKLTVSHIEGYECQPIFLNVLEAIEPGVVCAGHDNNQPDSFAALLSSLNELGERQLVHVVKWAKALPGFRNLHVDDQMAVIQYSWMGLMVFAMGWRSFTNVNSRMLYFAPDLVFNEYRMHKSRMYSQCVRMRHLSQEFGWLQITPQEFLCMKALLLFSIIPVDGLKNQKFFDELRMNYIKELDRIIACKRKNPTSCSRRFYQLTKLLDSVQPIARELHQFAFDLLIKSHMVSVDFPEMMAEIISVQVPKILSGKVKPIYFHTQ
Sequence (Q15369 whole entry, further chain): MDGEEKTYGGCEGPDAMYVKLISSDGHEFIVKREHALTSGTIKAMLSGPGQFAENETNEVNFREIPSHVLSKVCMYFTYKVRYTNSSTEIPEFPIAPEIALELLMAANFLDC
endpoint.label: maximum AR degradation Dmax (%)
Give a bare numeral; the unit % is implied.

record.smiles	system.under.test	maximum AR degradation Dmax [%]
Cc1ncsc1-c1ccc(CNC(=O)[C@@H]2C[C@@H](O)CN2C(=O)[C@@H](NC(=O)CCOCCCOc2ccc(N3C(=S)N(c4ccc(C#N)c(C(F)(F)F)c4)C(=O)C3(C)C)cc2)C(C)(C)C)cc1	AR (Homo sapiens, UniProt P10275+P40337, T878A)	18
Cc1ncsc1-c1ccc(CNC(=O)[C@@H]2C[C@@H](O)CN2C(=O)[C@@H](NC(=O)COCCCOCCCCCOc2ccc(N3C(=S)N(c4ccc(C#N)c(C(F)(F)F)c4)C(=O)C3(C)C)cc2)C(C)(C)C)cc1	AR (Homo sapiens, UniProt P10275+P40337, T878A)	83

// next item, maximum AR degradation Dmax requested
For record Cc1ncsc1-c1ccc(CNC(=O)[C@@H]2C[C@@H](O)CN2C(=O)[C@@H](NC(=O)CCOCCOc2ccc(N3C(=S)N(c4ccc(C#N)c(C(F)(F)F)c4)C(=O)C3(C)C)cc2)C(C)(C)C)cc1 the listed maximum AR degradation Dmax is 56

---

test system: c-Myc expression; assay: c-Myc ELISA assay in 22RV1 cells; type: cell-based, human; details: 22RV1 cells, connector composition changes, Table 4; read-out: c-Myc expression inhibition IC50
endpoint.label: IC50 (nM)
Give a bare numeral; the unit nM is implied.

For record Cc1ncsc1-c1ccc(CNC(=O)[C@@H]2C[C@@H](O)CN2C(=O)[C@@H](NC(=O)COCCCCCCNC(=O)C[C@@H]2N=C(c3ccc(Cl)cc3)c3c(sc(C)c3C)-n3c(C)nnc32)C(C)(C)C)cc1 [Compound 41] the listed IC50 is 25.7

For record Cc1ncsc1-c1ccc(CNC(=O)[C@@H]2C[C@@H](O)CN2C(=O)[C@@H](NC(=O)COCCCOCCNC(=O)C[C@@H]2N=C(c3ccc(Cl)cc3)c3c(sc(C)c3C)-n3c(C)nnc32)C(C)(C)C)cc1 [Compound 29] the listed IC50 is 0.16

For record Cc1ncsc1-c1ccc(CNC(=O)[C@@H]2C[C@@H](O)CN2C(=O)[C@@H](NC(=O)COCCCSCCNC(=O)C[C@@H]2N=C(c3ccc(Cl)cc3)c3c(sc(C)c3C)-n3c(C)nnc32)C(C)(C)C)cc1 [Compound 40] the listed IC50 is 20.9

---

tested on: c-Myc expression; assay: c-Myc ELISA assay in 22RV1 cells; type: cell-based, human; settings: Homo sapiens, 22Rv1, read-out: c-Myc expression IC50
endpoint.label: IC50 (nM)
Give a bare numeral; the unit nM is implied.

For record Cc1sc2c(c1C)C(c1ccc(Cl)cc1)=N[C@@H](CC(=O)OC(C)(C)C)c1nnc(C)n1-2 [JQ1, reference compound] the listed IC50 is 101

---

target: AR (Homo sapiens, UniProt P10275+P40337, T878A); construct: degradation Dmax of AR in LNCaP cells; endogenous in cells; host or cells: LNCaP; assay: AR degradation in LNCaP cells (androgen receptor ELISA); type: cell-based
Documented ratio α between AR-binding potency IC50 and degradation potency DC50 across a set of molecules
Simply state the number, no unit and no words.

record.smiles	data.value
Cc1ncsc1-c1ccc(CNC(=O)[C@@H]2C[C@@H](O)CN2C(=O)[C@@H](NC(=O)COCCOCCOCCCCCOc2ccc(N3C(=S)N(c4ccc(C#N)c(C(F)(F)F)c4)C(=O)C3(C)C)cc2)C(C)(C)C)cc1	105

// next item, ratio α between AR-binding potency IC50 and degradation potency DC50 requested
For record Cc1ncsc1-c1ccc(CNC(=O)[C@@H]2C[C@@H](O)CN2C(=O)[C@@H](NC(=O)COCCCOCCCCCOc2ccc(N3C(=S)N(c4ccc(C#N)c(C(F)(F)F)c4)C(=O)C3(C)C)cc2)C(C)(C)C)cc1 the listed ratio α between AR-binding potency IC50 and degradation potency DC50 is 23.5
